Target: GST-fused LC3B (UniProt Q9GZQ8 1-120)
Test: SPR
pKd: −log10 of the molar value. Square brackets hold non-standard residues; d marks the D form. Ends that are not written are not given here. * marks the point of attachment. FITC = O=C1OC2(c3ccc(O)cc3Oc3cc(O)ccc32)c2ccc(NC(=S)*)cc21; pS = N[C@@H](COP(=O)(O)O)C(=O)O; Ahx = NCCCCCC(=O)O
READOUT LABEL: pKd

BINDER	QUALIFIER	TEST VALUE
{FITC-Ahx}-NSSGSSEDSFVEIRMAE [FITC-Ahx OPTN LIR peptide 169-185 (WT)]	=	4.20
{FITC-Ahx}-NSSGSSED[pS]AVEIRMAE [FITC-Ahx OPTN LIR peptide 169-185 (pS177 F178A)]	<	4.00
{FITC-Ahx}-NSSGSSED[pS]FVEIRMAE [FITC-Ahx OPTN LIR peptide 169-185 (pS177)]	=	4.67
{FITC-Ahx}-NSSGSSED[pS]FVEIRAAE [FITC-Ahx OPTN LIR peptide 169-185 (pS177 M183A)]	=	4.44
